Assay: Cell viability (cell-counting kit-8, WST-8) in Calu-3 cells
Assay type: cell-based
Settings: human, 24 h with compound
Starred links: 1 amine or outer side, 2 acyl side, 3 side chain; linkers in the order of their positions; H or OH if unused. Positions of bridges follow the written chain, without caps; N, C: chain ends. Non-standard residues stand in square brackets, D forms with d. Residues, ends and D or L forms follow the SMILES beside them. *: point of attachment. hTyr(3S-OH,4S-OH,3'-OSO3H) = N[C@H](C(=O)O)[C@H](O)[C@@H](O)c1ccc(O)c(OS(=O)(=O)O)c1; Orn(4R-OH,5R-OH) = O=C([C@H](C[C@@H](O)[C@@H](O)N[*:3])N[*:1])[*:2]; Pro(3S-OH,4S-Me) = C[C@H]1CN[C@H](C(=O)O)[C@H]1O; X1 = CCCCCOc1ccc(-c2cc(-c3ccc(C(=O)*)cc3)no2)cc1; Gln(3R-OH) = NC(=O)C[C@@H](O)[C@H](N)C(=O)O; Hyp = O=C(O)[C@@H]1C[C@@H](O)CN1
endpointName: CC50 at 24 h

{"molecule": "CCCCCOc1ccc(-c2cc(-c3ccc(C(=O)N[C@H]4C[C@@H](O)[C@@H](O)NC(=O)[C@@H]5[C@@H](O)[C@@H](C)CN5C(=O)[C@H]([C@H](O)CC(N)=O)NC(=O)[C@H]([C@H](O)[C@@H](O)c5ccc(O)c(OS(=O)(=O)O)c5)NC(=O)[C@@H]5C[C@@H](O)CN5C(=O)[C@H]([C@@H](C)O)NC4=O)cc3)no2)cc1 [Micafungin] (X1-[Orn(4R-OH,5R-OH)]T[Hyp][hTyr(3S-OH,4S-OH,3'-OSO3H)][Gln(3R-OH)][Pro(3S-OH,4S-Me)]; lactam 1-C)", "endpointName": "CC50 at 24 h", "obsValue": "> 64 µM"}

====

Assay: Cell viability (cell-counting kit-8, WST-8) in VeroE6/TMPRSS2 cells
Assay type: cell-based
Conditions: African green monkey, 24 h with compound
Starred links: 1 amine or outer side, 2 acyl side, 3 side chain; linkers in the order of their positions; H or OH if unused. Positions of bridges follow the written chain, without caps; N, C: chain ends. Non-standard residues stand in square brackets, D forms with d. Residues, ends and D or L forms follow the SMILES beside them. *: point of attachment. hTyr(3S-OH,4S-OH,3'-OSO3H) = N[C@H](C(=O)O)[C@H](O)[C@@H](O)c1ccc(O)c(OS(=O)(=O)O)c1; pTerphenylCO(4''-OnC5H11) = CCCCCOc1ccc(-c2ccc(-c3ccc(C(=O)*)cc3)cc2)cc1; Orn(4R-OH,5R-OH) = O=C([C@H](C[C@@H](O)[C@@H](O)N[*:3])N[*:1])[*:2]; hTyr(3S-OH,4S-OH) = N[C@H](C(=O)O)[C@H](O)[C@@H](O)c1ccc(O)cc1; Pro(3S-OH,4S-Me) = C[C@H]1CN[C@H](C(=O)O)[C@H]1O; X1 = CCCCCOc1ccc(-c2cc(-c3ccc(C(=O)*)cc3)no2)cc1; Gln(3R-OH) = NC(=O)C[C@@H](O)[C@H](N)C(=O)O; Hyp = O=C(O)[C@@H]1C[C@@H](O)CN1
endpointName: CC50 at 24 h

{"compound": "CCCCCOc1ccc(-c2ccc(-c3ccc(C(=O)N[C@H]4C[C@@H](O)[C@@H](O)NC(=O)[C@@H]5[C@@H](O)[C@@H](C)CN5C(=O)[C@H]([C@@H](C)O)NC(=O)[C@H]([C@H](O)[C@@H](O)c5ccc(O)cc5)NC(=O)[C@@H]5C[C@@H](O)CN5C(=O)[C@H]([C@@H](C)O)NC4=O)cc3)cc2)cc1 [Anidulafungin] ({pTerphenylCO(4''-OnC5H11)}-[Orn(4R-OH,5R-OH)]T[Hyp][hTyr(3S-OH,4S-OH)]T[Pro(3S-OH,4S-Me)]; lactam 1-C)", "obsValue": "24.6 µM"}
{"compound": "CCCCCOc1ccc(-c2cc(-c3ccc(C(=O)N[C@H]4C[C@@H](O)[C@@H](O)NC(=O)[C@@H]5[C@@H](O)[C@@H](C)CN5C(=O)[C@H]([C@H](O)CC(N)=O)NC(=O)[C@H]([C@H](O)[C@@H](O)c5ccc(O)c(OS(=O)(=O)O)c5)NC(=O)[C@@H]5C[C@@H](O)CN5C(=O)[C@H]([C@@H](C)O)NC4=O)cc3)no2)cc1 [Micafungin] (X1-[Orn(4R-OH,5R-OH)]T[Hyp][hTyr(3S-OH,4S-OH,3'-OSO3H)][Gln(3R-OH)][Pro(3S-OH,4S-Me)]; lactam 1-C)", "obsValue": "> 64 µM"}
{"compound": "CC[C@H](C)C[C@H](C)CCCCCCCCC(=O)N[C@H]1C[C@@H](O)[C@@H](NCCN)NC(=O)[C@@H]2[C@@H](O)CCN2C(=O)[C@H]([C@H](O)CCN)NC(=O)[C@H]([C@H](O)[C@@H](O)c2ccc(O)cc2)NC(=O)[C@@H]2C[C@@H](O)CN2C(=O)[C@H]([C@@H](C)O)NC1=O", "obsValue": "> 64 µM"}
